# tgt: hCRTH2 (Homo sapiens)
Quick reference for Ki among some compounds

A selection of reference data follows.
O=C(O)Cc1c2n(c3c(F)cccc13)CC(n1nncc1Cc1ccc(Cl)cc1)CC2 (single isomer, unassigned); > 100 nM
CC(c1ccccc1)c1cnnn1[C@@H]1CCc2c(CC(=O)O)c3ccccc3n2C1 (single isomer, unassigned); 5 to 10 nM
O=C(O)Cc1c2n(c3ccccc13)CC(n1nncc1C1(O)c3ccccc3-c3ccccc31)CC2 (stereo not shown); 10 to 50 nM

Could you now look at the following compound, please?
Field request: Ki | item: CC(O)(c1ccc(F)cc1)c1cnnn1C1CCc2c(CC(=O)O)c3ccccc3n2C1 (single isomer, unassigned) [Example 5.1] ≤ 5 nM

====

Quick reference for pKi among some molecules
# tgt: hCRTH2 (Homo sapiens)
# Sequence (Q9Y5Y4 1-395): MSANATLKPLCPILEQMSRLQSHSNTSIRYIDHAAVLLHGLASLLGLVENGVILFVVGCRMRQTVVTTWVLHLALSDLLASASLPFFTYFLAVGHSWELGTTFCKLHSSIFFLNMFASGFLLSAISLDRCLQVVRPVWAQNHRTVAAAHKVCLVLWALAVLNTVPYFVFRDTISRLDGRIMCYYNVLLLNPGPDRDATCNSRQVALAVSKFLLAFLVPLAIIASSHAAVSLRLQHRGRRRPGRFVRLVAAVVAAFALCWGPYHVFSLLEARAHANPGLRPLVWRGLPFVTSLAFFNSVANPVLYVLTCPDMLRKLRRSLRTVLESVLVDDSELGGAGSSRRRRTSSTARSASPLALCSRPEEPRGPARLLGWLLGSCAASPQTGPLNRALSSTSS
pKi: −log10 of the molar value.

O=C(O)Cc1c2n(c3ccccc13)CC(n1nncc1C(O)(c1ccc(F)cc1)c1ccc(F)cc1)CC2 (single isomer, unassigned) [Example 27.2]; 7.00 to 7.30

Field request: pKi | item: O=C(O)Cn1c2c(c3ccccc31)CC(n1nncc1Cc1ccccc1)CC2 (single isomer, unassigned) [Example 9.1] ≥ 8.30

Try O=C(O)Cc1c2n(c3c(F)cccc13)C[C@H](n1nncc1Cc1ccc(F)cc1)CC2 [Example 8.1] next. ≥ 8.30

====

Quick reference for pKi among some compounds
Target sequence: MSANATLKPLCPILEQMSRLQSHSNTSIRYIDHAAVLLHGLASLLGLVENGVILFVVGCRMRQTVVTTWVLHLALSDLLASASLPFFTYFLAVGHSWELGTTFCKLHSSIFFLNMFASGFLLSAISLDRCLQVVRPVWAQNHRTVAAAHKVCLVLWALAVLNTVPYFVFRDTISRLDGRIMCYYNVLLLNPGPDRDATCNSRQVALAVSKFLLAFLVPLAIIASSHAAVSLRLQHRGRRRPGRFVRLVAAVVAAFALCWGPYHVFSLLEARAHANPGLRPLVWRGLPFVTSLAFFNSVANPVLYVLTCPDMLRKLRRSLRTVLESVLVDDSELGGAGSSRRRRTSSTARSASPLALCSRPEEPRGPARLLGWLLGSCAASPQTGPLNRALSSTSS
pKi: −log10 of the molar value.

A selection of reference data follows.
O=C(O)Cc1c2n(c3ccccc13)C[C@H](n1nncc1C(c1ccc(F)cc1)c1ccc(F)cc1)CC2 [Example 30]; ≥ 8.30
O=C(O)Cc1c2n(c3c(F)cccc13)CC(n1nncc1Cc1ccccc1)CC2 (single isomer, unassigned) [Example 7.1]; ≥ 8.30
O=C(O)Cc1c2n(c3ccccc13)CC(n1cc(COc3ccccc3)nn1)CC2 (stereo not shown) [Example 14]; 7.30 to 8.00

Could you now look at the following compound, please?
Field request: pKi | item: CC(C)(O)c1ccc(-c2cn(C3CCc4c(CC(=O)O)c5ccccc5n4C3)nn2)cc1 (stereo not shown) [Example 16] < 7.00

Reference for the values: patent US9023864B2
